inhibition at 1.1 µM listing for selected compounds.
target-desc: Human PI3K beta (Homo sapiens)
Construct: His (N); host or cells: SF9 insect cells (baculovirus)
Sequence (P42338 whole entry): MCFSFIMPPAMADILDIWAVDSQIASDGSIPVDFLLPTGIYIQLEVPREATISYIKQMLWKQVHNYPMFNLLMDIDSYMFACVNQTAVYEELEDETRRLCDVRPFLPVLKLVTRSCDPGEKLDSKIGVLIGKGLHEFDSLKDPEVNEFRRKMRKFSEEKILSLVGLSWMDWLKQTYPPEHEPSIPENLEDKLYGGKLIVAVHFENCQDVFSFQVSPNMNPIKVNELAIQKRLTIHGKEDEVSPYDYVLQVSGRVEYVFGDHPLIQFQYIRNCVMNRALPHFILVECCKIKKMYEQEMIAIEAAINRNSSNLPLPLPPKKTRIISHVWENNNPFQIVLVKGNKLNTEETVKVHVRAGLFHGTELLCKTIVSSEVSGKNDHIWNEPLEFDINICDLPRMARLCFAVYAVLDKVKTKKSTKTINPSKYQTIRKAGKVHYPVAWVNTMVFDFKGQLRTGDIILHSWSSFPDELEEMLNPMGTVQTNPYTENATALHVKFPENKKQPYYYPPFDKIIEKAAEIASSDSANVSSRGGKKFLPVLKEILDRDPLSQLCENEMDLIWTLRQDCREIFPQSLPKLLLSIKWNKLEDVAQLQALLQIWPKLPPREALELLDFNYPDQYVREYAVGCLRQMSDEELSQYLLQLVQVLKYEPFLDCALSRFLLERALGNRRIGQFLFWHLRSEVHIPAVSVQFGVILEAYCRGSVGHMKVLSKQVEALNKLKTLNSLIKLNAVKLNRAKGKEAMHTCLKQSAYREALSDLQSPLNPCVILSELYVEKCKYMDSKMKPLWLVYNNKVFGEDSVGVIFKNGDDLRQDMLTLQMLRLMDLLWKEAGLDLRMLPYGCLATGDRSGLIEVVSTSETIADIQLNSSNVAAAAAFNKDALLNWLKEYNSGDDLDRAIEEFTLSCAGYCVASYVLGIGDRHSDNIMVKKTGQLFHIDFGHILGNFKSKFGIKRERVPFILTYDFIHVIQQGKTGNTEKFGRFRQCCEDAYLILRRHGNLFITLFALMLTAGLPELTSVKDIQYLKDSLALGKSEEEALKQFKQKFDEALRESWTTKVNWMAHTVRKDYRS
Sequence (P27986 whole entry partner): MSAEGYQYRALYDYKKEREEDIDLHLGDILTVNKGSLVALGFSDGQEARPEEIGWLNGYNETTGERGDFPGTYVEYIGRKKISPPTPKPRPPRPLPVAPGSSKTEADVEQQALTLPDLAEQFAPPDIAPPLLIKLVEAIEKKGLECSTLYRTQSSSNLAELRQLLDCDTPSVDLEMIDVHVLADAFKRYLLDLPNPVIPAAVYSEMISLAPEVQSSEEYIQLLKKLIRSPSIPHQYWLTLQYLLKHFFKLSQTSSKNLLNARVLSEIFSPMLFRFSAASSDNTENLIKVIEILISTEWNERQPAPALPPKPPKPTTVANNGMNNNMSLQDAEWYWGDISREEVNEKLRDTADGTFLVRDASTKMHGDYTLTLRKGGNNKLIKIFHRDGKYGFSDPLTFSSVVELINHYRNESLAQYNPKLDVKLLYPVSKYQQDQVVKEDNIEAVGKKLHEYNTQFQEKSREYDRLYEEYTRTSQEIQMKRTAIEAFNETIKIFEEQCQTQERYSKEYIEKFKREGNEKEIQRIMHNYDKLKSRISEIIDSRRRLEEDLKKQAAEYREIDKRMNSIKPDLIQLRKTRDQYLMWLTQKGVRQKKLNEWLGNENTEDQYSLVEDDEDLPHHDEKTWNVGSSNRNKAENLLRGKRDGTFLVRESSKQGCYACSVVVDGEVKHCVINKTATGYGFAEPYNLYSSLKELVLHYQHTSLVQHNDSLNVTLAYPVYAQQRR
assay-comment: Human PI3K beta enzyme assay (HTRF)
Format: biochemical
experimental-context: concentration not given; b1387 states 1.1 μM for PI3K α and β; read-out: p110 beta Percent Inhibition
State just the number; it will be interpreted in %.

Take a look at these entries with their results.
Please tell me: inhibition at 1.1 µM of CC(=O)Nc1cc(-c2cc(C(c3ccc(Cl)cc3)n3ccnc3)c(-c3nnc[nH]3)s2)ccn1 (stereo not shown) , system Human PI3K beta (Homo sapiens)? 103

Record: "O=C(O)c1sc(-c2ccncc2)cc1Cc1ccc2ccccc2c1" 110

***
Checklist item: inhibition at 1.1 µM tested on Human PI3K beta (Homo sapiens), entry CC(=O)Nc1cc(-c2cc(C(c3ccc(Cl)cc3)N(C)C3CNC3)c(-c3nnc[nH]3)s2)ccn1 (stereo not shown) , value? 109
